Let's look at some molecules and their measured z-score.
# EXPERIMENTAL_PROTOCOL: E. coli DRC41 culture turbidity changes, primary screen, E. coli filamentation inducer project, strain DRC41, OD650, 48 h (AID 1152);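 note: E. coli MC1000 strain DRC41 lacking acrAB efflux pump and sulA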
# CONDITION_DESCRIPTION: E. coli DRC41 (acrAB sulA), higher = more signal, called active from +8 up or from −8 down
Active and inactive are the calls of the source.
ATTRIBUTE_MEASURED: z-score

>  <MOLECULE>
COc1c(C)cc(-c2cc3c(c(-c4ccc(Oc5ccccc5)cc4)n2)[Si](C(C)C)(C(C)C)OC3)cc1C

>  <ATTRIBUTE_MEASURED>
z-score

>  <RESULT>
-1.42 (inactive)

$$$$
>  <MOLECULE>
COc1ccc(CCN2C(=O)[C@@]3(Cc4ccccc42)c2ccccc2C(=O)N(Cc2ccccc2Cl)[C@H]3c2ccc(CO)cc2)cc1

>  <ATTRIBUTE_MEASURED>
z-score

>  <RESULT>
0.641 (inactive)

$$$$
>  <MOLECULE>
COCC(=C=CC[C@H](O)c1ccc(OCCO)cc1)C[C@H](O)c1cc(Cl)cc(Cl)c1O

>  <ATTRIBUTE_MEASURED>
z-score

>  <RESULT>
1.37 (inactive)

$$$$
>  <MOLECULE>
Cc1ccccc1C(O)C1C=CC2C(=O)N(C)C(=O)C2N1Nc1ccccc1 (configuration not stated)

>  <ATTRIBUTE_MEASURED>
z-score

>  <RESULT>
-1.71 (inactive)

$$$$
>  <MOLECULE>
C=CCNC(=O)[C@@H]1[C@H]2C(=O)O[C@H](c3ccccc3)[C@H](c3ccccc3)N2[C@H](c2ccc(O)cc2)[C@@]12C(=O)N(C(=O)OCCOC)c1ccccc12

>  <ATTRIBUTE_MEASURED>
z-score

>  <RESULT>
0.808 (inactive)

$$$$
>  <MOLECULE>
C=CCC(OC(C)=O)[C@@H]1[C@@H](N(Cc2ccc(-c3ccccc3)cc2)C(=O)Cc2ccc(F)cc2)c2cc(OCCCO)ccc2N1C(=O)c1ccc2ccccc2n1 (some centres not stated)

>  <ATTRIBUTE_MEASURED>
z-score

>  <RESULT>
1.51 (inactive)

$$$$
>  <MOLECULE>
[N-]=[N+]=Nc1ccccc1C[C@]1(C(=O)NCCN2CCOCC2)N=C(c2ccc(OCCCO)cc2)O[C@H]1c1ccccc1

>  <ATTRIBUTE_MEASURED>
z-score

>  <RESULT>
0.0623 (inactive)

$$$$

====

# SYSTEM_TESTED: Fibroblast growth factor 10 (Homo sapiens) (UniProt O15520)
# Sequence (O15520 whole entry, looked up): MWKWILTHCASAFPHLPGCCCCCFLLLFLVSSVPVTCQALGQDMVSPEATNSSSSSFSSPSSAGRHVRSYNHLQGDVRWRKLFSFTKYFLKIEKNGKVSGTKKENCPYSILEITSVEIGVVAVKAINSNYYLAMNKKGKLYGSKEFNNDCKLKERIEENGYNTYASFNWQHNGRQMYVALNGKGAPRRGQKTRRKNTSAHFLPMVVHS
# EXPERIMENTAL_PROTOCOL: FGF10 binders on small-molecule microarrays, primary screen, biochemical, small-molecule microarray, 635 nm fluorescence (AID 1102)
# CONDITION_DESCRIPTION: FGF10 binding, fluorescence 635 nm, higher = more signal
ATTRIBUTE_MEASURED: composite z-score

>  <COMPOUND>
O=C1C2C=CC(C(O)c3ccc(F)cc3)N(Nc3ccccc3)C2C(=O)N1c1ccccc1 (centres undefined)

>  <NUMERIC_RESULT>
-0.0653

$$$$
>  <COMPOUND>
CCCCCN1CC=CC23O[C@@H]4/C=C\CCCOC(=O)C4[C@H]2C(=O)N(CCCCCCO)[C@@H]3C1=O (some centres undefined)

>  <NUMERIC_RESULT>
-0.894

$$$$
>  <COMPOUND>
C=CCOC(=O)[C@@H]1[C@H]2C(=O)O[C@H](c3ccccc3)[C@H](c3ccccc3)N2[C@H](c2ccc(OCCOC(=O)[C@@H]3C[C@@H]4C(=O)NCC(=O)N4[C@@H]3c3cccc(OCCO)c3)cc2)[C@@]12C(=O)Nc1ccc(I)cc12

>  <NUMERIC_RESULT>
1.29

$$$$
>  <COMPOUND>
C=CC[C@@H](OC(=O)Nc1ccc(OC)cc1)c1ccc(O)c2ccccc12

>  <NUMERIC_RESULT>
1.2

$$$$
>  <COMPOUND>
CCN(CC)c1ccc(N2CC=CC34O[C@@H]5C=CCCOC(=O)C5[C@H]3C(=O)N(CCCCCO)[C@@H]4C2=O)cc1 (some centres undefined)

>  <NUMERIC_RESULT>
-0.292

$$$$
>  <COMPOUND>
COCC1=C2[C@@H](CCc3ccccc3)OB(O)C[C@@H]2[C@@H]2C(=O)N(Cc3ccccc3)C(=O)[C@@H]2C1

>  <NUMERIC_RESULT>
0.628

$$$$
>  <COMPOUND>
COC(=O)[C@@]1(Cc2ccccc2)N=C(c2ccc(OCCCO)cc2)O[C@H]1c1ccccc1N=[N+]=[N-]

>  <NUMERIC_RESULT>
0.883

$$$$
>  <COMPOUND>
COCCOC(=O)N1C(=O)[C@@]2(c3cc(C#CC4=CCCCC4)ccc31)[C@H](C(=O)N1CCc3cc(OC)c(OC)cc3C1)[C@H]1C(=O)O[C@H](c3ccccc3)[C@H](c3ccccc3)N1[C@@H]2c1ccccc1OCCO

>  <NUMERIC_RESULT>
0.964

$$$$
>  <COMPOUND>
COc1ccc([Si](C)(C)[C@@H]2[C@@H](CCn3cc([C@H](O)c4ccccc4)nn3)O[C@]3(C(=O)N(Cc4cccc(N5CCOC5=O)c4)c4ccccc43)[C@H]2C)cc1

>  <NUMERIC_RESULT>
-1.02

$$$$
>  <COMPOUND>
Cc1ccc(S[C@]2(C(=O)NC3CC3)CC(=O)N(Cc3ccccc3)[C@@H]2c2ccc(CO)cc2)cc1

>  <NUMERIC_RESULT>
-0.829

$$$$
>  <COMPOUND>
COc1ccc([Si](C)(C)[C@H]2[C@H](CCn3cc(CCO)nn3)O[C@@]3(C(=O)N(Cc4ccc(N5CCOC5=O)cc4)c4ccccc43)[C@@H]2C)cc1

>  <NUMERIC_RESULT>
0.209

$$$$
>  <COMPOUND>
CC(=O)NCCCC[C@@H]1NC(=O)[C@H]2C[C@@H](C(=O)NCCCCCC[N+](C)(C)C)[C@@H](c3cccc(OCCO)c3)N2C1=O

>  <NUMERIC_RESULT>
1.17

$$$$
>  <COMPOUND>
CCCC[C@@H]1C[C@H]1[C@@H](NC(=O)c1ccc(-c2ccccc2)cc1)c1ccc(-c2ccccc2)cc1

>  <NUMERIC_RESULT>
0.259

$$$$
>  <COMPOUND>
CC1CC/C=C\[C@H]2OC34C=CCN(Cc5ccccc5)C(=O)[C@H]3N(CCCCCO)C(=O)[C@@H]4C2C(=O)O1 (some centres undefined)

>  <NUMERIC_RESULT>
-0.423

$$$$
>  <COMPOUND>
C=C[C@H](COC(C)=O)N(Cc1ccc(OC(C)=O)c(OC)c1)S(=O)(=O)c1ccc(Br)cc1

>  <NUMERIC_RESULT>
0.934

$$$$
>  <COMPOUND>
COCCOC(=O)N1C(=O)[C@@]2(c3cc(C#CCC(C(=O)OC)C(=O)OC)ccc31)[C@H](c1ccccc1OCCO)N1[C@H](c3ccccc3)[C@H](c3ccccc3)OC(=O)[C@H]1[C@@H]2C(N)=O

>  <NUMERIC_RESULT>
1.22

$$$$
>  <COMPOUND>
CCCNC(=O)[C@@H]1c2ccccc2C(=O)N(Cc2ccccc2)[C@H]1c1ccc(CO)cc1

>  <NUMERIC_RESULT>
-0.239

$$$$
>  <COMPOUND>
[N-]=[N+]=NCc1ccccc1C[C@]1(C(=O)O)N=C(c2ccc(OCCCO)cc2)O[C@H]1c1ccccc1

>  <NUMERIC_RESULT>
-0.2

$$$$
>  <COMPOUND>
O=C(OCCF)C1=CCC(c2cccc(Cl)c2)O1 (centres undefined)

>  <NUMERIC_RESULT>
0.0899

$$$$
>  <COMPOUND>
COc1ccc([Si](C)(C)[C@@H]2[C@@H](CC(=O)N(CCO)Cc3ccccc3)O[C@]3(C(=O)N(C)c4ccccc43)[C@H]2C)cc1

>  <NUMERIC_RESULT>
1.05

$$$$
>  <COMPOUND>
COC(=O)c1ccc(OC)c(/C=C\CC(OC(C)=O)c2ccccc2)c1 (centres undefined)

>  <NUMERIC_RESULT>
-0.207

$$$$
>  <COMPOUND>
O=C1OCC=C[C@H]2OC34C=CCN(c5ccc(Cl)cc5)C(=O)[C@H]3N(CCCCCCO)C(=O)[C@@H]4[C@@H]12 (some centres undefined)

>  <NUMERIC_RESULT>
-1.17

$$$$
>  <COMPOUND>
CC(C)NC(=O)[C@@H]1c2ccccc2C(=O)N(Cc2ccccc2Cl)[C@H]1c1ccc(CO)cc1

>  <NUMERIC_RESULT>
-0.584

$$$$
>  <COMPOUND>
CO[C@H]1O[C@H](CO)[C@@H](OC(=O)Nc2ccc3c(c2)OCO3)[C@H](OC(=O)Nc2ccccc2)[C@H]1OC(=O)Nc1ccccc1

>  <NUMERIC_RESULT>
0.892

$$$$
>  <COMPOUND>
COc1ccc(C#Cc2ccc3c(c2)[C@]2(C(=O)N3)[C@H](C(=O)NC[C@H](O)c3ccccc3)[C@H]3C(=O)O[C@H](c4ccccc4)[C@H](c4ccccc4)N3[C@@H]2c2ccccc2OCCO)cc1

>  <NUMERIC_RESULT>
0.877

$$$$
>  <COMPOUND>
O=C1O[C@H](c2ccccc2)[C@H](c2ccccc2)N2[C@H]1[C@@H](C(=O)O)[C@]1(C(=O)Nc3ccc(C#CC4=CCCCC4)cc31)[C@H]2c1ccc(OCCO)cc1

>  <NUMERIC_RESULT>
1.25

$$$$
>  <COMPOUND>
CCOC(=O)C1=CC[C@@H](c2ccccc2Cl)N(S(=O)(=O)c2ccc(C)cc2)C1

>  <NUMERIC_RESULT>
0.403

$$$$
>  <COMPOUND>
O=c1cccc(C=Cc2ccccc2)o1

>  <NUMERIC_RESULT>
-0.629

$$$$
>  <COMPOUND>
N#Cc1ccc(NN2C(C(O)c3ccc([N+](=O)[O-])cc3)C=CC3C(=O)N(c4ccccc4)C(=O)C32)cc1 (centres undefined)

>  <NUMERIC_RESULT>
0.626

$$$$

Reference source: PubChem BioAssay
